- experimental_target: delta-opioid receptor (DOR) (Rattus norvegicus)
- Construct: Rat cortices were homogenized using 50 mM Tris, pH 7.4, 10 mM MgCl2-6H2O, 200 µM PMSF; from tissue; host or cells: rat cortex membranes
- Sequence (P33533 whole entry): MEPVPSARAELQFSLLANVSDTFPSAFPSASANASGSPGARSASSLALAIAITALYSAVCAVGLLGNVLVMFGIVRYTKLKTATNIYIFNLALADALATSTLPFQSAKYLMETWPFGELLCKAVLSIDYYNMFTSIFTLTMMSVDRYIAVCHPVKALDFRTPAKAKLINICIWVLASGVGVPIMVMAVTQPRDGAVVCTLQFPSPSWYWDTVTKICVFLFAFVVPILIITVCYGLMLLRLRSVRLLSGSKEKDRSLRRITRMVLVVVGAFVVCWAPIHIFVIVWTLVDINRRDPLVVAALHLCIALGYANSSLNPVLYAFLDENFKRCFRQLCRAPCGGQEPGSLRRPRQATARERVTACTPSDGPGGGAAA
- assay_remarks: DOR radioligand competition binding assay ([3H]-DPDPE)
- test_settings: Delta screening results, mean of both Ki; unit inferred; read-out: MEAN (Ki)
pKi: −log10 of the molar value.
assay_readout: pKi

* Cc1cc(O)cc(C)c1C[C@H]1CN([C@@H](CC(C)C)CN2C(=N)NC[C@@H]2C)C(=N)N1 [1968-44] | 5.12
* Cc1cc(O)cc(C)c1C[C@H]1CNC(=N)N1C[C@H](Cc1ccccc1)N1C[C@H](Cc2ccc(O)cc2)NC1=N [1968-50] | 6.05
* N=C1NC[C@H](Cc2ccc(O)cc2)N1C[C@H](Cc1ccc(O)cc1)N1C[C@H](Cc2ccc(O)cc2)NC1=N [1968-70] | 4.97
* Cc1cc(O)cc(C)c1C[C@H]1CN([C@@H](Cc2c(C)cc(O)cc2C)CN2C(=N)NC[C@@H]2Cc2ccccc2)C(=N)N1 [1968-68] | 6.34
* C[C@H]1CNC(=N)N1C[C@H](Cc1ccccc1)N1C[C@H](Cc2ccccc2)NC1=N [1968-33] | 4.95
* Cc1cc(O)cc(C)c1C[C@H]1CNC(=N)N1C[C@H](Cc1ccccc1)N1C[C@H](Cc2ccccc2)NC1=N [1968-49] | 6.27
* Cc1cc(O)cc(C)c1C[C@@H](CN1C(=N)NC[C@@H]1Cc1ccc(O)cc1)N1C[C@H](Cc2ccc(O)cc2)NC1=N [1968-30] | 5.92
